Recorded values, source ChEMBL document CHEMBL1681633.

measured on: Signal transducer and activator of transcription 3 (Mus musculus, UniProt P42227)
Sequence (P42227 whole entry, the tested form may be a part): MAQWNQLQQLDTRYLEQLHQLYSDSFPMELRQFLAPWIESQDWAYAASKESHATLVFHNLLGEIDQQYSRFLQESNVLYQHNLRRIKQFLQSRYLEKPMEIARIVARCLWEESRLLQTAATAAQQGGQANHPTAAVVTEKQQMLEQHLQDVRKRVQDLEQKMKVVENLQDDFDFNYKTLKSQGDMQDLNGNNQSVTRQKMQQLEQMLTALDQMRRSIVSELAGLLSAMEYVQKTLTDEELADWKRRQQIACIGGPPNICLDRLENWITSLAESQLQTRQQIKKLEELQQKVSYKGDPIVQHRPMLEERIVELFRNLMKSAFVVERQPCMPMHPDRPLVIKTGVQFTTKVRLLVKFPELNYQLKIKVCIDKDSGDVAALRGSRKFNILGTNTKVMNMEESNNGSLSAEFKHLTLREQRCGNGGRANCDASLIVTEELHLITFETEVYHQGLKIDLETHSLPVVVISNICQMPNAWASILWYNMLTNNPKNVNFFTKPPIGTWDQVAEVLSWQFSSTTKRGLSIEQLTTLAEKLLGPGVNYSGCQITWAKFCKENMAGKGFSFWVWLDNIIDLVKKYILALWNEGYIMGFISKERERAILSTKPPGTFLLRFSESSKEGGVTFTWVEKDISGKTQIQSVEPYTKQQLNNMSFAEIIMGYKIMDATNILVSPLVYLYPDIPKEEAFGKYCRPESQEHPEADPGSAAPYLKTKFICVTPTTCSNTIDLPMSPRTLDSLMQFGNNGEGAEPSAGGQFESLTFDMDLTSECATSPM
test protocol: Displacement of 5-carboxyfluorescein-GpYLPQTV-NH2 from mouse recombinant His-tagged STAT3-SH2 domain expressed in Escherichia coli BL21 (DE3) by fluorescence polarization assay
assay readout: Ki (µM)
Answers are plain numbers, in µM.

Sample records with Ki:
CC(C)C[C@H](NC(=O)[C@H](Cc1ccc(OP(=O)(O)O)cc1)NC(=O)c1ccc(C#N)cc1)C(=O)Nc1ccc(C(=O)NCc2ccccc2)c(-c2cccc(C(N)=O)c2)c1 = 15
CC(C)C[C@H](NC(=O)[C@H](Cc1ccc(OP(=O)(O)O)cc1)NC(=O)c1ccc(C#N)cc1)C(=O)Nc1ccc(C(=O)NCc2ccccc2)c(-c2ccc(C#N)cc2)c1 = 11
COC(=O)c1cccc(-c2cc(NC(=O)[C@H](CC(C)C)NC(=O)[C@H](Cc3ccc(OP(=O)(O)O)cc3)NC(=O)c3ccc(C#N)cc3)cc(C(=O)NCc3ccccc3)c2)c1 = 23
CC(C)C[C@H](NC(=O)[C@H](Cc1ccc(OP(=O)(O)O)cc1)NC(=O)c1ccc(C#N)cc1)C(=O)Nc1cc(C(=O)NCc2ccccc2)cc(-c2ccc(C#N)cc2)c1 = 36
CC(C)C[C@H](NC(=O)[C@H](Cc1ccc(OP(=O)(O)O)cc1)NC(=O)c1ccc(C#N)cc1)C(=O)Nc1cc(C(=O)NCc2ccccc2)cc(-c2cccc(C#N)c2)c1 = 18
CC(C)C[C@H](NC(=O)[C@H](Cc1ccc(OP(=O)(O)O)cc1)NC(=O)c1ccc(C#N)cc1)C(=O)Nc1cc(C(=O)NCc2ccccc2)cc(-c2cccc(C(N)=O)c2)c1 = 38
COC(=O)c1ccc(-c2cc(NC(=O)[C@H](CC(C)C)NC(=O)[C@H](Cc3ccc(OP(=O)(O)O)cc3)NC(=O)c3ccc(C#N)cc3)cc(C(=O)NCc3ccccc3)c2)cc1 = 25
COC(=O)c1cccc(-c2cc(NC(=O)[C@H](CC(C)C)NC(=O)[C@H](Cc3ccc(OP(=O)(O)O)cc3)NC(=O)c3ccc(C#N)cc3)ccc2C(=O)NCc2ccccc2)c1 = 10
CC(C)C[C@H](NC(=O)[C@H](Cc1ccc(OP(=O)(O)O)cc1)NC(=O)c1ccc(C#N)cc1)C(=O)Nc1ccc(C(=O)NCc2ccccc2)c(-c2cccc(C#N)c2)c1 = 13
CC(C)C[C@H](NC(=O)[C@H](Cc1ccc(OP(=O)(O)O)cc1)NC(=O)c1ccc(C#N)cc1)C(=O)Nc1ccc(C(=O)NCc2ccccc2)c(-c2ccc(C(N)=O)cc2)c1 = 5

# batch: return Ki for each of the 2 molecules below
1. COC(=O)c1ccc(-c2cc(NC(=O)[C@H](CC(C)C)NC(=O)[C@H](Cc3ccc(OP(=O)(O)O)cc3)NC(=O)c3ccc(C#N)cc3)ccc2C(=O)NCc2ccccc2)cc1
2. CC(C)C[C@H](NC(=O)[C@H](Cc1ccc(OP(=O)(O)O)cc1)NC(=O)c1ccc(C#N)cc1)C(=O)Nc1cc(C(=O)NCc2ccccc2)cc(-c2ccc(C(N)=O)cc2)c1

Result:
26
9

----------
measured on: Signal transducer and activator of transcription 3 (Mus musculus, UniProt P42227)
test protocol: Inhibition of mouse recombinant SH2 domain of His-tagged full-length STAT3 by surface plasmon resonance assay
Assign Kd to each entry below.
One number for each entry, in µM.

Use the examples below as a reference point.
CC(C)C[C@H](NC(=O)[C@H](Cc1ccc(OP(=O)(O)O)cc1)NC(=O)c1ccc(C#N)cc1)C(=O)Nc1cc(C(=O)NCc2ccccc2)cc(-c2ccc(C(N)=O)cc2)c1 = 0.205
CC(C)C[C@H](NC(=O)[C@H](Cc1ccc(O)cc1)NC(=O)c1ccc(C#N)cc1)C(=O)Nc1cc(C(=O)NCc2ccccc2)cc(-c2ccc(C(N)=O)cc2)c1 = 17

Answer for every listed entry: what is its Kd? The entries follow.
1. CC(C)C[C@H](NC(=O)[C@H](Cc1ccc(O)cc1)NC(=O)c1ccc(C#N)cc1)C(=O)Nc1ccc(C(=O)NCc2ccccc2)c(-c2ccc(C(N)=O)cc2)c1
2. CC(C)C[C@H](NC(=O)[C@H](Cc1ccc(OP(=O)(O)O)cc1)NC(=O)c1ccc(C#N)cc1)C(=O)Nc1ccc(C(=O)NCc2ccccc2)c(-c2ccc(C(N)=O)cc2)c1

Result:
12
0.9
